assay: Ex vivo biodistribution in mice with MM1S tumor xenografts; conditions: both sexes, NSG, mouse, lung, 2 mg/kg, 60 min p.i.; MM1S xenograft mice with blocking dose (2 mg kg^−1 AJ206); read-out: uptake in lung
readout: tissue uptake at 1 h (%ID/g)
// return numeric value only (unit: %ID/g, not printed)

Exercise: Fill in the blank: the reported tissue uptake at 1 h of CC[C@H](C)[C@@H]1NC(=O)[C@@H]2CCCN2C(=O)[C@H](Cc2ccccc2)NC(=O)[C@H](CC(=O)O)NC(=O)[C@H](C)NC(=O)[C@@H]2CSCc3cc(cc(c3)CSC[C@H](NC(=O)[C@H](C)NC(=O)CCOCCOCCOCCNC(=O)CN3CCN(CC(=O)O)CCN(CC(=O)O)CC3)C(=O)N[C@@H](C(C)C)C(=O)N3CCC[C@H]3C(=O)N2)CSC[C@@H](C(N)=O)NC(=O)[C@H](Cc2ccc(O)cc2)NC(=O)[C@H](Cc2c[nH]c3ccccc23)NC1=O [[^68Ga]Ga‐AJ206, metal not drawn] is ____.
Key: 0.94

----------
assay: Ex vivo biodistribution in mice with MM1S tumor xenografts; settings: both sexes, NSG, mouse, blood, 80 µCi, 120 min p.i.; MM1S xenograft mice; read-out: uptake in blood
readout: tissue uptake at 2 h
Please append the unit to your numeric answer.

Exercise: // returns reported tissue uptake at 2 h for input CC[C@H](C)[C@@H]1NC(=O)[C@@H]2CCCN2C(=O)[C@H](Cc2ccccc2)NC(=O)[C@H](CC(=O)O)NC(=O)[C@H](C)NC(=O)[C@@H]2CSCc3cc(cc(c3)CSC[C@H](NC(=O)[C@H](C)NC(=O)CCOCCOCCOCCNC(=O)CN3CCN(CC(=O)O)CCN(CC(=O)O)CC3)C(=O)N[C@@H](C(C)C)C(=O)N3CCC[C@H]3C(=O)N2)CSC[C@@H](C(N)=O)NC(=O)[C@H](Cc2ccc(O)cc2)NC(=O)[C@H](Cc2c[nH]c3ccccc23)NC1=O [[^68Ga]Ga‐AJ206, metal not drawn]
Key: 0.33 %ID/g

----------
Experiment: Ex vivo biodistribution in mice with MM1S tumor xenografts
Conditions: both sexes, NSG, mouse, large intestine (with contents), 80 µCi, 90 min p.i.; MM1S xenograft mice; read-out: uptake in large intestine (with contents)
Protocol: […] Mice with 100–200 mm^3 tumor volume were used for ex vivo biodistribution studies. For radiotracer pharmacokinetics studies, mice with MOLP8 tumor xenografts received ≈80 µCi (2.96 MBq) [^68Ga]Ga‐AJ206 and were sacrificed at pre‐determined time points (5, 30, 60 and 120 min). Similarly, for dosimetry study, mice with MM1S tumor xenografts received ≈80 µCi (2.96 MBq) of [^68Ga]Ga‐AJ206 and were sacrificed at pre‐determined time points (5, 30, 60, 90 and 120 min). […]
readout: tissue uptake at 1.5 h (%ID/g)
Please respond with the number in %ID/g and leave the unit unwritten.

Exercise: I have this molecule here, CC[C@H](C)[C@@H]1NC(=O)[C@@H]2CCCN2C(=O)[C@H](Cc2ccccc2)NC(=O)[C@H](CC(=O)O)NC(=O)[C@H](C)NC(=O)[C@@H]2CSCc3cc(cc(c3)CSC[C@H](NC(=O)[C@H](C)NC(=O)CCOCCOCCOCCNC(=O)CN3CCN(CC(=O)O)CCN(CC(=O)O)CC3)C(=O)N[C@@H](C(C)C)C(=O)N3CCC[C@H]3C(=O)N2)CSC[C@@H](C(N)=O)NC(=O)[C@H](Cc2ccc(O)cc2)NC(=O)[C@H](Cc2c[nH]c3ccccc23)NC1=O [[^68Ga]Ga‐AJ206, metal not drawn] , and I need its recorded tissue uptake at 1.5 h.
Key: 0.27
